- assay_system: DNA dC->dU-editing enzyme APOBEC-3F (Homo sapiens) (UniProt Q8IUX4)
- Sequence (Q8IUX4 whole entry, looked up): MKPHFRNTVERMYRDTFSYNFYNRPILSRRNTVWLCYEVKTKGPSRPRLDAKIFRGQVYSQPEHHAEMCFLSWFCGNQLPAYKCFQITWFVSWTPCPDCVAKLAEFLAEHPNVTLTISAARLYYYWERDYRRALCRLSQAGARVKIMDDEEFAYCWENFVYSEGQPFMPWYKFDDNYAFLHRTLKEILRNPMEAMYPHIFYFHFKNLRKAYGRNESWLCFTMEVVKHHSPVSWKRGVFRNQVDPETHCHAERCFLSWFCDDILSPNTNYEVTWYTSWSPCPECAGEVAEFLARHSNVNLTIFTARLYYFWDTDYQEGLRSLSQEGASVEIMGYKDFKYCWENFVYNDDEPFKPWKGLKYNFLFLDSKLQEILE
- test_summary: qHTS for inhibitors of Vif-A3F interactions: Cherry picks counterscreen; also: nearly all actives have a fitted effect of over 65% in size; also: potency is read from the fitted curve at half-maximal effect
- test_conditions: HeLa A3F-eYFP/Vif cells, eYFP fluorescence, 24 h; series mostly up to 46.1 µM
About 1,100 (52%) of roughly 2,100 compounds were called active. Not shown: some 29% with an inconclusive outcome. The set was probably picked from earlier hits. Some of the results follow.
quantity_kind: Potency

> print(dat)
                                    molecule   recorded.result
 1  COc1cc2c(c(OC)c1OC)-c1ccc(N(C)CC(OC)OC)c(=O)cc1[C@@H](NC(C)=O)CC2  1.12 µM (active)
 2  Cc1cccc(-c2noc(-c3ccc(NCc4ccco4)c([N+](=O)[O-])c3)n2)c1  14.6 µM (active)
 3       Cc1ccc2c(c1C)NC(=O)CC(c1ccccc1O)=N2          inactive
 4  COc1ccc(-c2ccc3c(c2)S(=O)(=O)c2cccc(C(=O)NCCOc4ccccc4)c2C3=O)cc1OC    14 µM (active)
 5      Cc1[nH]c2ccccc2c1/C=C/c1ccc2ccccc2n1  18.4 µM (active)
 6  O=C(NCc1ccccc1Cl)c1cccc2c1C(=O)c1ccc(-c3ccc(OC(F)(F)F)cc3)cc1S2(=O)=O  16.4 µM (active)
 7  COc1ccccc1N=C1NC(=O)/C(=C/c2ccc(N(C)C)cc2)S1  6.51 µM (active)
 8  Cc1ccc(N2C(=O)[C@@H]3[C@H](C2=O)[C@H]2C=C(C(=O)c4ccccc4)C=CN2[C@@H]3C(=O)c2ccc(Cl)cc2)cc1          inactive
 9  COc1ccc(NC2=CC(=O)CC(c3ccccc3)C2)c(OC)c1 (configuration not stated)  5.59 µM (active)
10            CN(C)c1ccc(C=C2SC(=S)NC2=O)cc1  7.04 µM (active)
11  COc1ccccc1-c1cc(-c2ccccc2)nc(SC(C(N)=O)c2ccccc2)c1C#N (configuration not stated)  17.7 µM (active)
12           O=c1c2cc3ccccc3n2cnn1Cc1ccccc1F    14 µM (active)
13  COc1ccccc1-c1noc(-c2ccc(NCc3ccco3)c([N+](=O)[O-])c2)n1  18.4 µM (active)
14    Cc1cc(N(C)C)c(C)cc1/C=C/c1ccnc2ccccc12   8.2 µM (active)
15  N#Cc1c(-c2ccccc2F)cc(C2CC2)nc1SCC(=O)c1cccs1    14 µM (active)
16    CN(C)c1ccc(/C=C/c2ccnc3c(Cl)cccc23)cc1   9.2 µM (active)
17  Cc1noc(C)c1CSc1nc2ccccc2c(=O)n1-c1ccccc1  3.53 µM (active)
18  O=[N+]([O-])c1cc(-c2nc(-c3ccccc3)no2)ccc1NCc1ccco1    13 µM (active)
19  COc1ccc(-c2ccc3c(c2)S(=O)(=O)c2cccc(C(=O)NCc4cccc(OC(F)(F)F)c4)c2C3=O)cc1OC  3.66 µM (active)
20  CCOc1ccc(N(C)c2ccc(/C=C3/SC(=S)NC3=O)cc2)cc1  15.8 µM (active)
21  CN[C@H]1CCc2cc(OC)c(OC)c(OC)c2-c2ccc(N(C)CC(OC)OC)c(=O)cc21   2.8 µM (active)
22      Cc1[nH]c2ccccc2c1/C=C/c1ccnc2ccccc12  3.26 µM (active)

###

- assay_system: DNA dC->dU-editing enzyme APOBEC-3F (Homo sapiens) (UniProt Q8IUX4)
- test_summary: qHTS for inhibitors of Vif-A3F interactions: Cherry picks counterscreen; also: nearly all actives have a fitted effect of over 65% in size; also: potency is read from the fitted curve at half-maximal effect
- test_conditions: HeLa A3F-eYFP/Vif cells, eYFP fluorescence, 24 h; series mostly up to 46.1 µM
The whole screen tested about 2,100 compounds, of which about 1,100 (52%) were called active. Inconclusive results (about 29%) are left out. The set was probably picked from earlier hits. The list shows a part of the results.
quantity_kind: Potency

> print(dat)
                               smiles.input   recorded.result
1  COc1ccc(NC(=O)CSc2ccc3c4c(cccc24)C(=O)c2ccccc2-3)cc1  14.6 µM (active)
2  N#Cc1cccc(NC(=O)CSc2ccc3c4c(cccc24)C(=O)c2ccccc2-3)c1  11.6 µM (active)
3  COc1ccc(/C=N\NC(=O)c2ccccc2F)cc1COc1ccc(F)cc1F  2.23 µM (active)
4  CCn1c(CNC(=O)C23CC4CC(CC(C4)C2)C3)nnc1SCC(=O)Nc1ccc(OC)cc1          inactive
5  O=C(NC(=S)Nc1ccc(N2CCCCC2)c(Cl)c1)c1ccc2c(c1)OCCO2          inactive

###

- assay_system: DNA dC->dU-editing enzyme APOBEC-3F (Homo sapiens) (UniProt Q8IUX4)
- test_summary: qHTS for inhibitors of Vif-A3F interactions: Cherry picks counterscreen; also: nearly all actives have a fitted effect of over 65% in size; also: potency is read from the fitted curve at half-maximal effect
- test_conditions: HeLa A3F-eYFP/Vif cells, eYFP fluorescence, 24 h; series mostly up to 46.1 µM
Screen size: about 2,100 compounds; about 1,100 (52%) were called active. Inconclusive results (about 29%) are left out. The set was probably picked from earlier hits. Some of the results follow.
quantity_kind: Potency

molecule	recorded_result
COc1cc(OC)cc(C(=O)Nc2ccc(N3CCN(C(=O)c4cccs4)CC3)cc2)c1	7.9 µM (active)
CCCOc1ccccc1C1CC(=O)Nc2cc3c(cc21)OCO3 (stereo unspecified)	3.96 µM (active)
COC(=O)c1sccc1S(=O)(=O)N(CC(=O)Nc1cc(F)ccc1F)c1ccc(C)c(C)c1	inactive
COc1cc2c3nnc(-c4ccc(F)cc4)c-3cn(Cc3ccccc3F)c2cc1OC	16.4 µM (active)
CN(C)c1ccc(/C=C2\Oc3ccc(C#Cc4cccc(N)c4)cc3C2=O)cc1	15.8 µM (active)
COc1cccc(Cn2c(-c3nonc3NC(C)=O)nc3ccccc32)c1	9.2 µM (active)
COc1ccc(C(=O)C[n+]2cccc3cc(Cl)ccc32)cc1	20.6 µM (active)
COc1cc2c3nnc(-c4ccccc4)c-3cn(Cc3ccccc3F)c2cc1OC	3.66 µM (active)
O=C(Nc1ncc(Cc2ccc(SC(F)F)cc2)s1)c1ccccc1	2.23 µM (active)
COc1cc(C(=O)OCC(=O)Nc2ccc(N3CCOCC3)cc2)ccc1OCC(C)C	inactive
CC(=O)Nc1cccc(-c2ccnc3c2CC(C)(C(=O)NCc2ccccc2)O3)c1 (stereo unspecified)	2.8 µM (active)
CC1CC(C)CN(CC(=O)c2c[nH]c3ccccc23)C1 (stereo unspecified)	20.6 µM (active)
C=C(NC(=O)C(=C)NC(=O)c1csc(C2=NC3c4csc(n4)C4NC(=O)c5csc(n5)C(C(C)(O)C(C)O)NC(=O)C5CSC(=N5)/C(=C/C)NC(=O)C(C(C)O)NC(=O)c5csc(n5)C3(CC2)NC(=O)C(C)NC(=O)C(=C)NC(=O)C(=C)NC(=O)C(C(C)C)NC2C=Cc3c(C(C)O)cc(nc3C2O)C(=O)OC4C)n1)C(N)=O (stereo unspecified)	5.59 µM (active)
Cc1ccc(N2C(=O)CS/C2=C(\C(Cl)=C(Cl)Cl)[N+](=O)[O-])cc1	inactive
COC(=O)C1C2CC3c4[nH]c5cc(OC)ccc5c4CCN3CC2CC(OC(=O)CC(C)=O)C1OC (stereo unspecified)	18.4 µM (active)
CCc1sc(-c2cc3ccc(O)cc3oc2=O)nc1-c1ccc(C)cc1	inactive
COc1ccc(-c2cc3ccccc3oc2=O)cc1NC(=S)NC(=O)c1ccc2c(c1)OCCO2	6.51 µM (active)
O=C(C(=O)N1CCN(c2ccccc2Cl)CC1)c1c[nH]c2ccccc12	inactive
COc1ccc(-c2cnc3c(NC=O)cc(-c4ccccc4)cn23)cc1OC	1.77 µM (active)
CCc1ccc2nc(SCC(=O)Nc3ccccc3N3CCOCC3)c(C#N)cc2c1	2.59 µM (active)
COc1ccccc1Nc1cc2cc(Br)ccc2c(=O)[nH]1	7.04 µM (active)
COc1cc2c3nnc(-c4ccc(F)cc4)c-3cn(Cc3ccc(C)cc3)c2cc1OC	15.8 µM (active)
COc1ccc(NC(=O)C2Cc3c(-c4cccc(C(C)=O)c4)ccnc3O2)cc1 (stereo unspecified)	3.53 µM (active)
CCOc1ccccc1Nc1nnc(-c2cc3cc(Cl)ccc3oc2=O)s1	5.17 µM (active)
COc1ccc2oc(=O)c(-c3nc4ccccc4o3)cc2c1	14.6 µM (active)
c1ccc(-c2nccc(-c3ccc4c(c3)OCO4)n2)cc1	5.59 µM (active)
CN(/N=C/c1ccc(N(C)C)cc1)C1=NS(=O)(=O)c2ccccc21	11.2 µM (active)
Fc1ccc2nc3[nH]c4ccccc4c3nc2c1	0.886 µM (active)
CCOc1ccccc1C1CC(=O)NC2=C1C(=O)CCC2 (stereo unspecified)	12.5 µM (active)
CC(=O)c1cccc(-c2ccnc3c2CC(C(=O)Nc2ccc(Cl)cc2)O3)c1 (stereo unspecified)	4.98 µM (active)
O=C(CCCCl)Oc1ccc2cc(-c3ccc4ccccc4n3)c(=O)oc2c1	inactive
COc1ccc2nc3sc(C(=O)Nc4cc(Cl)c(OC)cc4OC)cc3cc2c1	4.11 µM (active)
Cc1ccc(C(=O)CSC2=C(C#N)C(c3ccco3)C3=C(CCCC3=O)N2)cc1 (stereo unspecified)	9.94 µM (active)
COc1ccc(-c2cnc3c(NC=O)cc(-c4ccoc4)cn23)cc1OC	11.2 µM (active)
COc1cc(C2c3cc4c(cc3OC(C)(N3CCCC3)C2C)OCO4)cc(OC)c1OC (stereo unspecified)	1.25 µM (active)
CCCOc1ccccc1C1CC(=O)NC2=C1C(=O)CCC2 (stereo unspecified)	7.04 µM (active)
Cc1ccc(-c2cc(NC=O)c3ncc(-c4cnn(C)c4)n3c2)cc1	5.59 µM (active)
Cc1cc(C)nc(-n2nc(C)cc2NC(=O)c2ccc(F)cc2F)n1	inactive
O=c1[nH]c2cc(Br)cnc2nc1/C=C(\O)c1ccc(F)cc1	18.4 µM (active)
O=c1oc2cc(O)ccc2cc1-c1nc(-c2ccc(Cl)c(Cl)c2)cs1	2.06 µM (active)
CCCC1=[N+](CC(=O)c2ccc(Br)cc2)CCn2cccc21	inactive
